Measured Euclidean distance values are reported for all entries that follow.
Tested on: FB
protocol summary: Euclidean distance of Cell Painting phenotypic profile (signed KS, 77 features) to DMSO centroid (dimensionless distance); 5 or 10 uM (library dependent); higher = stronger phenotypic change vs DMSO (phenoactivity)
measurement context: 48 h
parameter measured: Euclidean distance

[[record]]
molecule = "CC(C)(C)c1ccc(C(=O)CCCN2CCC(OC(c3ccccc3)c3ccccc3)CC2)cc1"
parameter_measured = "Euclidean distance"
observed_measurement = 1.83

[[record]]
molecule = "CC1=C(C(=O)OC2CCCCC2)C(c2ccc([N+](=O)[O-])cc2)C2=C(CC(C)(C)CC2=O)N1 (stereo not given)"
parameter_measured = "Euclidean distance"
observed_measurement = 2.71

[[record]]
molecule = "CCNC(=O)CC[C@H](N)C(=O)O"
parameter_measured = "Euclidean distance"
observed_measurement = 2.05

[[record]]
molecule = "Cc1cn([C@H]2C=C[C@@H](CO)O2)c(=O)[nH]c1=O"
parameter_measured = "Euclidean distance"
observed_measurement = 0.969

[[record]]
molecule = "O=C1CC[C@@H](C(=O)N2CSC[C@H]2C(=O)O)N1"
parameter_measured = "Euclidean distance"
observed_measurement = 0.833


Entry source: the supplement of paper PMC10127200
